Tested on: CST murine breast cancer cell line
protocol_summary: Monoculture PrestoBlue cytotoxicity test, CST
Type: cell-based, mouse
condition_notes: Mus musculus, 120 h exposure
measured_quantity: IC50
In your response, the unit should come after the numeric value.

State, in one line, measured IC50 of CC(C)c1cccc(C(C)C)c1N1C=[N+](c2c(C(C)C)cccc2C(C)C)CC1 [SIPr, reference compound]
5.92 µM

Return IC50 (reported value) for this compound: CC(C)c1cccc(C(C)C)c1N1C=[N+]([C@@H](C)c2ccccc2)C[C@@H]1C(C)(C)C [Lb]
4.95 µM

----------
Kindly supply the reported IC50 values for the records listed here.
System: Mes-Sa/Dx5 eGFP
protocol_summary: Triple coculture fluorescence cytotoxicity test, doxorubicin-selected MDR line
Type: cell-based, human
condition_notes: Homo sapiens, MES-SA/Dx5; triple coculture, 144 h incubation, fluorescence readout
Kindly report the value followed by its unit.

Give the value of IC50 reported for the following: CC(C)c1cccc(C(C)C)c1N1C=[N+](c2c(C(C)C)cccc2C(C)C)CC1 [SIPr, reference compound]
106 µM

Given CC(C)c1cccc(C(C)C)c1-n1cc[n+](-c2c(C(C)C)cccc2C(C)C)c1 [IPr, reference compound] , respond with its IC50.
51.3 µM

Return IC50 for the following molecule: CC(C)c1cccc(C(C)C)c1N1C=[N+]([C@@H](C)c2ccccc2)C[C@@H]1C(C)(C)C
47.9 µM

Consider the molecule COc1cc([C@@H]2c3cc4c(cc3[C@@H](O[C@@H]3O[C@@H]5CO[C@@H](C)O[C@H]5[C@H](O)[C@H]3O)[C@H]3COC(=O)[C@H]23)OCO4)cc(OC)c1O [Etoposide, reference compound] and give its recorded IC50.
1.9 µM

Output measured IC50 for this item: CC(C)c1cccc(C(C)C)c1N1C=[N+]([C@H](C)c2ccccc2)C[C@@H]1C(C)(C)C
73 µM
